Provenance of the data: PubChem BioAssay (NCI)

- System: CCRF-CEM leukemia
- protocol-details: NCI-60 one-dose screen, 48 h (100 = growth as untreated, 0 = no growth, -100 = all killed)
- test-conditions: 10 µM unless noted
The panel holds about 83,000 compounds, 20% with a hit somewhere; the sample as a whole holds those more often. Activity calls are given as the source filed them. The calls were made as follows: active = growth percent below 10; inactive = the rest.
growth values, listed per item

See these solved cases before continuing.
| compound | growth |
| --- | --- |
| Cn1c(I)c(C#CCO[Si](C)(C)C(C)(C)C)c(=O)[nH]c1=O | 5.42% (active) |
| N#Cc1ccc(O)c(C2=NCC(c3ccccc3)O2)c1 (centres undefined) | 28.1% (inactive) |
| CCC(C(=O)[C@@H](C)[C@@H](O)[C@H](C)[C@@H]1O[C@@H]([C@@H](CC)C(=O)ONC(=O)c2ccccc2)CC[C@@H]1C)[C@H]1O[C@]2(C=CC(=O)[C@]3(CC[C@@](C)([C@H]4CC[C@](O)(CC)[C@H](C)O4)O3)O2)[C@H](C)C[C@@H]1C (some centres undefined) | -11.2% (active) |
| CCSc1nc2scc(C)c2c(=O)[nH]1 | 99.2% (inactive) |
| CCOC(=O)c1cc(C)n(-c2ccc(C(=O)O)cc2)c1C | 92.2% (inactive) |
| COc1cccc(/C=C2\COc3ccc(O)c(O)c3C2=O)c1 | 3.04% (active) |
| Cc1cccc(/C=C/c2c(C(=O)/C=C/c3ccccc3)c(C)nc3ccccc23)c1 | 6.17% (active) |
| N#C/C(=C\c1c(-c2ccccc2)[nH]c2ccccc12)C(N)=O | 66.1% (inactive) |

Kindly consider the entry below.
What does the record list as growth for COc1ccc(/C=C/C(=O)c2ccc(Nc3ccnc4cc(Cl)ccc34)cc2)cc1 ?
-52.1% (active)
